Biological target: c-kit kinase (Homo sapiens, UniProt P10721)
Construct: The c-kit (or kinase domain thereof) is an active kinase in AlphaScreen; poly-Histidine tag (in-house protein only) (cleaved yes); host or cells: E. coli BL21(DE3)RIL, co-expressed with PTP1B
Sequence (P10721 26-976): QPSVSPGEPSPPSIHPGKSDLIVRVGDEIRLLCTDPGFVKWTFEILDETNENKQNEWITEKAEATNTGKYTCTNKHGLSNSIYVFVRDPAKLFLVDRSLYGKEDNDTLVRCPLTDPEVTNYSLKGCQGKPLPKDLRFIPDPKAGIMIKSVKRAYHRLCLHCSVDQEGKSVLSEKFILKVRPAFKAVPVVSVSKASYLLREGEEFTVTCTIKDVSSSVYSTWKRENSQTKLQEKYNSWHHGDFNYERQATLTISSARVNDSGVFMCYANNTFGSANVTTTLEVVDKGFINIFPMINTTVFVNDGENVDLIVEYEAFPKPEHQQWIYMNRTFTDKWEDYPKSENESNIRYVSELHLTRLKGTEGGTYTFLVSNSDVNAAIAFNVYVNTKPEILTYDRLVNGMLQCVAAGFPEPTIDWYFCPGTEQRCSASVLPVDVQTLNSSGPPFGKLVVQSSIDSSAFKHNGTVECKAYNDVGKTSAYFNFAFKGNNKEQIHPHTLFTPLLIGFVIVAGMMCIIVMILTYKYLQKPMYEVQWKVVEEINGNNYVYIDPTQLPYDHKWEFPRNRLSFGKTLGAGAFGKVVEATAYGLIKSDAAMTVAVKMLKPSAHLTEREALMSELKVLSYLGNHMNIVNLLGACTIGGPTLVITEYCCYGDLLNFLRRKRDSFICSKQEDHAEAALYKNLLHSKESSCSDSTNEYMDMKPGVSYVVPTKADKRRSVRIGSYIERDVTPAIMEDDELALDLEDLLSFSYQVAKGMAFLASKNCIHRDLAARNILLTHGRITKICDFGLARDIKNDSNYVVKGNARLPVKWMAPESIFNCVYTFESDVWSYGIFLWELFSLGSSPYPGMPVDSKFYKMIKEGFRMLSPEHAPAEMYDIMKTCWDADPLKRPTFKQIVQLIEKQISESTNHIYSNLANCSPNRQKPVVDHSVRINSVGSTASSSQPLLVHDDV
Assay: c-Kit biochemical assay, AlphaScreen, 10 μM ATP
Details: c-kit biochemical inhibitory activity; read-out: Biochemical activity (IC50 μM) Kit
Catalogue of IC50 readings, one per entry.
result type: IC50

chem_smiles=O=C(Nc1ccc(OC(F)(F)F)cc1)N1CCN(c2ncnc3[nH]c(-c4ccc(Cl)cc4)cc23)CC1 system_tested="c-kit kinase (Homo sapiens, UniProt P10721)" endpoint_result="0.0001 to 1 µM"
chem_smiles=CN(C)c1ncc(-c2cc3c(N4CCC(NS(=O)(=O)c5ccc(OC(F)(F)F)cc5)CC4)ncnc3[nH]2)s1 system_tested="c-kit kinase (Homo sapiens, UniProt P10721)" endpoint_result="1 to 10 µM"
chem_smiles=CCS(=O)(=O)Nc1ccc(-c2ncnc3[nH]c(-c4ccc(F)cc4)cc23)cc1 system_tested="c-kit kinase (Homo sapiens, UniProt P10721)" endpoint_result="0.0001 to 1 µM"
chem_smiles=Cc1cc2c(-c3ccc(NS(=O)(=O)c4cnn(C(F)F)c4)cc3)ncnc2[nH]1 system_tested="c-kit kinase (Homo sapiens, UniProt P10721)" endpoint_result="10 to 200 µM"
chem_smiles=Cc1cc2c(-c3ccc(NS(=O)(=O)c4cccc(Cl)c4F)c(F)c3)ncnc2[nH]1 system_tested="c-kit kinase (Homo sapiens, UniProt P10721)" endpoint_result="1 to 10 µM"
chem_smiles=O=S(=O)(NC1CCN(c2ncnc3[nH]c(C4=CCCC4)cc23)CC1)c1ccc(OC(F)(F)F)cc1 system_tested="c-kit kinase (Homo sapiens, UniProt P10721)" endpoint_result="0.0001 to 1 µM"
chem_smiles=Cc1ccc(-c2cc3c(N4CCN(C(=O)Nc5ccc(OC(F)(F)F)cc5)CC4)ncnc3[nH]2)cn1 system_tested="c-kit kinase (Homo sapiens, UniProt P10721)" endpoint_result="0.0001 to 1 µM"
chem_smiles=C#Cc1cc2c(N3CCN(C(=O)Nc4ccc(OCC)cc4)CC3)ncnc2[nH]1 system_tested="c-kit kinase (Homo sapiens, UniProt P10721)" endpoint_result="1 to 10 µM"
chem_smiles=COc1cc2ncnc(-c3ccc(NS(C)(=O)=O)cc3F)c2cc1OC system_tested="c-kit kinase (Homo sapiens, UniProt P10721)" endpoint_result="1 to 10 µM"
chem_smiles=CCOc1ccc(NC(=O)N2CCN(c3ncnc4[nH]c(-c5ccc(Cl)cc5)cc34)CC2)cc1 system_tested="c-kit kinase (Homo sapiens, UniProt P10721)" endpoint_result="0.0001 to 1 µM"
chem_smiles=Cc1cc2c(-c3ccc(NS(=O)(=O)c4ccc(C)s4)cc3)ncnc2[nH]1 system_tested="c-kit kinase (Homo sapiens, UniProt P10721)" endpoint_result="1 to 10 µM"
chem_smiles=C[C@H](NC(=O)N1CCN(c2ncnc3[nH]c(-c4cnn(C)c4)cc23)C[C@H]1C)c1ccc(F)cc1 system_tested="c-kit kinase (Homo sapiens, UniProt P10721)" endpoint_result="0.0001 to 1 µM"
chem_smiles=Nc1ccc(-c2ncnc3[nH]c(-c4ccc(F)cc4)cc23)cc1 system_tested="c-kit kinase (Homo sapiens, UniProt P10721)" endpoint_result="0.0001 to 1 µM"

Origin of measurements: patent US10227357B2
